# study-target: Pyruvate kinase PKLR (Rattus norvegicus)
# method-description: Relative half maximal velocity of Pyruvate kinase and Phosphoenolpyruvate
observable: Relative Vmax

| compound | study-target | reading-qualifier | reported-measurement |
| --- | --- | --- | --- |
| C[C@@H](OP(=O)(O)OP(=O)(O)O)[C@H]1OC(n2cnc3c(N)ncnc32)[C@H](O)[C@@H]1O (stereo not given in full) | Pyruvate kinase PKLR (Rattus norvegicus) | > | 0 |
| Nc1ncnc2c1ncn2[C@@H]1O[C@H](COP(=O)(O)OP(=O)(O)O)[C@@H](O)[C@H]1O | Pyruvate kinase PKLR (Rattus norvegicus) | = | 100 |
| CCNc1nc2c(N)ncnc2n1C1O[C@H](COP(=O)(O)OP(=O)(O)O)[C@@H](O)[C@H]1O (stereo not given in full) | Pyruvate kinase PKLR (Rattus norvegicus) | < | 1 |
| CNc1nc2c(N)ncnc2n1C1O[C@H](COP(=O)(O)OP(=O)(O)O)[C@@H](O)[C@H]1O (stereo not given in full) | Pyruvate kinase PKLR (Rattus norvegicus) | = | 40 |
| CSc1nc2c(N)ncnc2n1C1O[C@H](COP(=O)(O)OP(=O)(O)O)[C@@H](O)[C@H]1O (stereo not given in full) | Pyruvate kinase PKLR (Rattus norvegicus) | = | 0 |
| Nc1ncnc2c1nc(Br)n2[C@@H]1O[C@H](COP(=O)(O)OP(=O)(O)O)[C@@H](O)[C@H]1O | Pyruvate kinase PKLR (Rattus norvegicus) | = | 14 |
| Nc1nc(N)c2ncn(C3O[C@H](COP(=O)(O)OP(=O)(O)O)[C@@H](O)[C@H]3O)c2n1 (stereo not given in full) | Pyruvate kinase PKLR (Rattus norvegicus) | = | 95 |
| CSc1nc(N)c2ncn([C@@H]3O[C@H](COP(=O)(O)OP(=O)(O)O)[C@@H](O)[C@H]3O)c2n1 | Pyruvate kinase PKLR (Rattus norvegicus) | = | 72 |
| C=CC[C@]1(COP(=O)(O)OP(=O)(O)O)OC(n2cnc3c(N)ncnc32)[C@H](O)[C@@H]1O (stereo not given in full) | Pyruvate kinase PKLR (Rattus norvegicus) | = | 52 |
| C[C@H](OP(=O)(O)OP(=O)(O)O)[C@H]1OC(n2cnc3c(N)ncnc32)[C@H](O)[C@@H]1O (stereo not given in full) | Pyruvate kinase PKLR (Rattus norvegicus) | = | 26 |

Where do these numbers come from? They come from ChEMBL document CHEMBL1121950.
